B1: r16_88_TrROS_Hall (parent)
chain: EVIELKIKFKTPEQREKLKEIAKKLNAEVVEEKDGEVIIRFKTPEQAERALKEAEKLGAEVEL

variants of: B1; assay: folding stability dG (cDNA display proteolysis); higher = more stable; conditions: PBS, room temperature
The following variants are shown together with reported folding stability dG values.
Reply with just the number (in kcal/mol).

Observe how each entry below is paired with its result.
(Q) Give the reported folding stability dG for this variant. EVIELKIKFKTPTQREKLKEIAKKLNAEVVEEKDGEVIIRFKTPEQAERALKEAEKLGAEVEL [E13T]
(A) 4.32

(Q) Give the reported folding stability dG for this variant. EVIELKIKFKTPEQREKLKEIATKLNAEVVEEKDGEVIIRFKTPEQAERALKEAEKLGAEVEL [K23T]
(A) 4.63

(Q) Give the reported folding stability dG for this variant. EVIELKIKFKTPEQMEKLKEIAKKLNAEVVEEKDGEVIIRFKTPEQAERALKEAEKLGAEVEL [R15M]
(A) 4.31

(Q) Give the reported folding stability dG for this variant. EVIELKIKFKTPEQREKLKEIAKKLNAEVVEEKDGEVIIRFKTPEQAERQLKEAEKLGAEVEL [A50Q]
(A) 3.84

(Q) Give the reported folding stability dG for this variant. EVIELCIKFKTPEQREKLKEIAKKLNAEVVEEKDGEVIIRFKTPEQAERALKEAEKLGAEVEL [K6C]
(A) 4.34

(Q) Give the reported folding stability dG for this variant. EVIELKIKFKTPEQREKLKEIAKKLNAEVVEEKDGEVIIRFKTPEQFERALKEAEKLGAEVEL [A47F]
(A) 4.52

(Q) Give the reported folding stability dG for this variant. EVIELKIKFKTPEQREKLKEIAKKLNAEVVEEKDGEVIIRFKTPEQAERALKEAEKLGAFVEL [E60F]
(A) 4.07

(Q) Give the reported folding stability dG for this variant. EVIELKIKFKTPEQREKLKEIAKKLNGEVVEEKDGEVIIRFKTPEQAERALKEAEKLGAEVEL [A27G]
(A) 4.37

Alright, here's another variant for you.
(Q) Give the reported folding stability dG for this variant. EVIELKIKFKTPEQREKLKEIAKKLNAEVVEEKDGEVIIRFKTPEQVERALKEAEKLGAEVEL [A47V]
(A) 4.63

Values compiled from the MegaScale stability set (Tsuboyama et al. 2023).
